Data origin, for the record: PubChem BioAssay AID1745853

Molecular target: Phenylethanolamine N-methyltransferase (Homo sapiens) (UniProt P11086)
Sequence (P11086 whole entry, looked up): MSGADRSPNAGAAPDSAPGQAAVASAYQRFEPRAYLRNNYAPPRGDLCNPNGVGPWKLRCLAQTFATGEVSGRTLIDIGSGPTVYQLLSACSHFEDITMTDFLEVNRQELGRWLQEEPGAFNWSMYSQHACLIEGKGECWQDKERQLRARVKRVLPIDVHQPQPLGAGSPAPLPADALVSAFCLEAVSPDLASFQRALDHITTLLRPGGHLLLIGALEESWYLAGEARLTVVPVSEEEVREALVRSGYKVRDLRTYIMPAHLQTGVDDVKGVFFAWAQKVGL
Experiment: Primary Screen for Target Class Profiling of Small Molecule Inhibitors of Methyltransferases; note: % is set by controls: 0 for no effect and ±100 for the full control effect
Conditions: purified enzyme, MTase-Glo SAH luminescence; measured here: PNMT inhibition; at 40 µM; stronger effect = lower value
The campaign covered roughly 25,000 compounds. About 970 (3.9%) were called active. About 8% were inconclusive and are not listed. The sample holds actives, similar compounds and a random draw of the others, so the mix is not that of the screen.
Below: a set of entries, each annotated with reported activity change, negative = inhibition.
Give just the numeric value; % need not be written.

Would you kindly share the measured activity change, negative = inhibition for COC1CC(O[C@H]2CC[C@@]3(C)C(CCC4C3CC[C@]3(C)[C@@H](C5=CC(=O)OC5)CC[C@]43O)C2)OC(C)C1O (stereo partly specified) ?
-12.7

Could you share which activity change, negative = inhibition value was measured for CN(C)c1ccc(C2c3cccn3-c3ccccc3CN2C(=O)Nc2ccccc2)cc1 (stereo unspecified) ?
-1.52

Quick one: activity change, negative = inhibition of `CO[C@H]1C[C@H](O[C@H]2CC[C@]3(CO)[C@H]4CC[C@]5(C)[C@@H](C6=CC(=O)OC6)CC[C@]5(O)[C@@H]4CC[C@]3(O)C2)O[C@H](C)[C@H]1O` ?
-14.3

###

// values below are reported activity change, negative = inhibition
Molecular target: Guanidinoacetate N-methyltransferase (Homo sapiens)
Assay: Primary Screen for Target Class Profiling of Small Molecule Inhibitors of Methyltransferases; note: % is set by controls: 0 for no effect and ±100 for the full control effect
Conditions: purified enzyme, MTase-Glo SAH luminescence; measured here: GAMT inhibition; at 40 µM; stronger effect = lower value
Among all 25,000 compounds or so, about 970 (3.9%) were called active. Not shown: some 8% with an inconclusive outcome. The full list was thinned out, with actives kept by preference.
Record the value in %, omitting the unit from your answer.

Example entries begin here.
CO[C@H]1C[C@H](O[C@H]2CC[C@]3(CO)[C@H]4CC[C@]5(C)[C@@H](C6=CC(=O)OC6)CC[C@]5(O)[C@@H]4CC[C@]3(O)C2)O[C@H](C)[C@H]1O :: -5.89
C[C@H]1O[C@@H](O[C@H]2CC[C@]3(CO)C4CC[C@]5(C)[C@@H](C6=CC(=O)OC6)CC[C@]5(O)[C@@H]4CC[C@H]3C2)[C@H](O)[C@H](O)[C@@H]1O[C@@H]1O[C@H](CO)[C@@H](O)[C@H](O)[C@H]1O (stereo partly drawn) :: -4.58

// activity change, negative = inhibition lookup, key: CCc1ccc(C2c3cccn3-c3ccccc3CN2C(=O)Nc2cc(C)cc(C)c2)cc1 (stereo not drawn)
0.9

###

Target: Guanidinoacetate N-methyltransferase (Homo sapiens) (UniProt Q14353)
Test: Primary Screen for Target Class Profiling of Small Molecule Inhibitors of Methyltransferases; note: % is set by controls: 0 for no effect and ±100 for the full control effect
Conditions: purified enzyme, MTase-Glo SAH luminescence; measured here: GAMT inhibition; at 40 µM; stronger effect = lower value
In all, about 25,000 compounds went through this assay and about 970 (3.9%) were called active. Not shown: some 8% with an inconclusive outcome. The entries come from a sample that favours actives as a whole.
Each entry below lists one item and its recorded activity change, negative = inhibition value.
The reply should contain only the number, in %.

Consider the following illustrative entries.
CCC1c2cccn2-c2ccccc2CN1C(=O)Nc1cccc(C)c1C (stereo not drawn) :: 3.87
C#C[C@]1(O)CC[C@H]2[C@@H]3CC[C@H]4Cc5nc6nc7ccccc7n6cc5C[C@]4(C)[C@H]3CC[C@@]21C :: -29.6

Moving on to another compound below.
Please give the measured activity change, negative = inhibition for this compound: COc1cccc(CC(=O)N2CCCCCC2CN2CCCC2)c1 (stereo not drawn)
-5.27
